Attribution: patent EP0185961A2

Test system: Reispflanzen
run-description: Growth inhibition in paddy rice, small plots
conditions-used: Oryza sativa, 504 h, read-out: Wuchsshemmung (%)
Measured pest or weed control at 1250 g/ha values are reported for all entries that follow.
Write down the numeric answer in % and omit the unit.

Before answering, review these 4 worked examples.
>>> result("CCc1cccc(CC)c1-n1cncc1C(N)=NO")
22
>>> result("CCc1cccc(CC)c1-n1cncc1C(=O)NO")
25
>>> result("C#CCOC(=O)c1cncn1-c1c(CC)cccc1CC")
19
>>> result("CCOC(=O)CSC(=O)c1cncn1-c1c(CC)cccc1CC")
21

// below: pest or weed control at 1250 g/ha requested for another molecule
// query Provide pest or weed control at 1250 g/ha value for the following molecule: CCc1cccc(CC)c1-n1cncc1C(=O)ON=C(C)C
// result 25

====

Measured pest or weed control at 2500 g/ha values are reported for all entries that follow.
Tested on: Roggen
run-description: Growth inhibition in cereals, greenhouse tray test, sprayed at 3-leaf stage
Format: in vivo
conditions-used: 2,5 kg/ha; % of growth increment of untreated controls; read-out: Wuchsshemmung in % bei Roggen
Write down the numeric answer in % and omit the unit.

Before answering, review these 6 worked examples.
>>> result("CCc1cccc(CC)c1-n1cncc1C(=O)n1cncn1 [Beispiel 76]")
23
>>> result("CCc1cccc(CC)c1-n1cncc1C(=O)OC1CCCCC1 [Beispiel 36]")
23
>>> result("CCc1cccc(CC)c1-n1cncc1C=O [Beispiel 13, 1-(2,6-Diethylphenyl)-5-formyl-imidazol]")
27
>>> result("CCc1cccc(CC)c1-n1cncc1C(=O)ON=C(C)C(C)C [Beispiel 42]")
19
>>> result("CCc1cccc(CC)c1-n1cncc1-c1nc(C)no1 [Beispiel 7]")
28
>>> result("CCc1cccc(CC)c1-n1cncc1C(=O)NCC#N [Beispiel 57]")
23

// below: pest or weed control at 2500 g/ha requested for another compound
// query Provide pest or weed control at 2500 g/ha value for the following compound: CCc1cccc(CC)c1-n1cncc1C(=O)NCC(=O)OC [Beispiel 61]
// result 25

====

Tested on: Reispflanzen
conditions-used: in vivo
value-type: Phytotox. Wirkung

>>> result("CCc1cccc(CC)c1-n1cncc1C(N)=NO")
"keine Schäden"
>>> result("CCc1cccc(CC)c1-n1cncc1COCc1ccccc1C")
"keine Schäden"
>>> result("CCc1cccc(CC)c1-n1cncc1C(=O)NCC(=O)O")
"keine Schäden"
>>> result("CCc1cccc(CC)c1-n1cncc1C(=O)ON1C(=O)c2ccccc2C1=O")
"keine Schäden"
>>> result("CCOC(=O)CSC(=O)c1cncn1-c1c(CC)cccc1CC")
"keine Schäden"
>>> result("CCc1cccc(CC)c1-n1cncc1C(=O)ON=C1CCCCC1")
"keine Schäden"

// query Provide Phytotox. Wirkung value for the following compound: CCc1cccc(CC)c1-n1cncc1C(=O)OC1CCCCC1
// result keine Schäden

// query Provide Phytotox. Wirkung value for the following compound: CCc1cccc(CC)c1-n1cncc1C(=O)NCCO
// result keine Schäden

// query Provide Phytotox. Wirkung value for the following compound: CCc1cccc(CC)c1-n1cncc1C=O
// result keine Schäden

// query Provide Phytotox. Wirkung value for the following compound: CCc1cccc(CC)c1-n1cncc1-c1nc(C)no1
// result keine Schäden

====

Test system: Roggen
run-description: Growth inhibition in cereals, greenhouse tray test, sprayed at 3-leaf stage
Format: in vivo
conditions-used: 2,5 kg/ha; % of growth increment of untreated controls; read-out: Wuchsshemmung in % bei Roggen
Measured pest or weed control at 2500 g/ha values are reported for all entries that follow.
Write down the numeric answer in % and omit the unit.

// query Provide pest or weed control at 2500 g/ha value for the following molecule: CCc1cccc(CC)c1-n1cncc1CO [Beispiel 12]
// result 24

// query Provide pest or weed control at 2500 g/ha value for the following molecule: CCc1cccc(CC)c1-n1cncc1C1=NC(C)(C)CO1 [Beispiel 6]
// result 17
